Recorded AC50 values (Neurotensin receptor type 1 (Homo sapiens, UniProt P30989)) are given below.

Use the examples below as a reference point.
INSERT INTO measurements (compound, result) VALUES
  ('Cc1c(C(=O)NN2CCCCC2)nn(-c2ccc(Cl)cc2Cl)c1-c1ccc(Cl)cc1 [RIMONABANT]', '> 30 µM'),
  ('COc1cccc(C2(O)CCCCC2CN(C)C)c1 (stereo not given) [TRAMADOL]', '> 30 µM'),
  ('CCCc1nc(C(C)(C)O)c(C(=O)OCc2oc(=O)oc2C)n1Cc1ccc(-c2ccccc2-c2nnn[nH]2)cc1 [OLMESARTAN MEDOXOMIL]', '> 30 µM');

Give AC50 for all compounds that follow.
1. O=[N+]([O-])O[C@@H]1CO[C@H]2[C@@H]1OC[C@@H]2O [ISOSORBIDE MONONITRATE]
2. CCOc1ccccc1OCC1CNCCO1 (stereo not given) [VILOXAZINE]
3. CC(C)C[C@H]1C(=O)N2CCC[C@H]2[C@]2(O)O[C@](NC(=O)[C@@H]3C=C4c5cccc6[nH]c(Br)c(c56)C[C@H]4N(C)C3)(C(C)C)C(=O)N12 [BROMOCRIPTINE]
4. CCCN(CCC)C(=O)C(CCC(=O)O)NC(=O)c1ccccc1 (stereo not given) [PROGLUMIDE]
5. CCC(C)n1ncn(-c2ccc(N3CCN(c4ccc(OCC5COC(Cn6cncn6)(c6ccc(Cl)cc6Cl)O5)cc4)CC3)cc2)c1=O (stereo not given) [ITRACONAZOLE]

Result:
1. > 30 µM
2. > 30 µM
3. > 30 µM
4. > 30 µM
5. > 30 µM

Give AC50 for all compounds that follow.
1. C[C@]12CCC(=O)C=C1CC[C@@H]1[C@@H]2[C@@H](O)C[C@@]2(C)[C@H]1CC[C@]2(O)C(=O)CO [HYDROCORTISONE]
2. CCOC(=O)[C@H](CCc1ccccc1)N[C@@H](C)C(=O)N1[C@H](C(=O)O)C[C@@H]2CCC[C@@H]21
3. Cn1nnc2c(C(N)=O)ncn2c1=O [TEMOZOLOMIDE]
4. CN(C)CCC=C1c2ccccc2C=Cc2ccccc21 [CYCLOBENZAPRINE]
5. Cc1cn([C@H]2C[C@H](N=[N+]=[N-])[C@@H](CO)O2)c(=O)[nH]c1=O [ZIDOVUDINE]
6. CCCCCNC(=N)N/N=C/c1c[nH]c2ccc(OC)cc12 [TEGASEROD]
7. Clc1ccc2nsnc2c1NC1=NCCN1 [TIZANIDINE]

Result:
["> 30 µM", "> 30 µM", "> 30 µM", "> 30 µM", "> 30 µM", "> 30 µM", "> 30 µM"]

Give AC50 for all compounds that follow.
1. CCCN1C[C@H](CSC)C[C@@H]2c3cccc4[nH]cc(c34)C[C@H]21 [PERGOLIDE]
2. N#Cc1ccc([C@H]2CCc3cncn32)c(F)c1 [OSILODROSTAT]
3. Cc1cn([C@H]2C=C[C@@H](CO)O2)c(=O)[nH]c1=O [STAVUDINE]
4. CN(C)CCC(c1ccc(Cl)cc1)c1ccccn1 (stereo not given) [CHLORPHENIRAMINE]
5. Cc1c(OCC(F)(F)F)ccnc1C[S+]([O-])c1nc2ccccc2[nH]1 (stereo not given) [LANSOPRAZOLE]
6. NCC(CC(=O)O)c1ccc(Cl)cc1 (stereo not given) [BACLOFEN]
7. CS(=O)(=O)c1ccc(C2=C(c3ccccc3)C(=O)OC2)cc1 [ROFECOXIB]
8. O=[N+]([O-])c1cn2c(n1)OC[C@@H](OCc1ccc(OC(F)(F)F)cc1)C2 [PRETOMANID]

Result:
1: > 30 µM; 2: > 10 µM; 3: > 30 µM; 4: > 30 µM; 5: > 30 µM; 6: > 30 µM; 7: > 30 µM; 8: > 10 µM

Give AC50 for all compounds that follow.
1. CN1C(=O)C(O)N=C(c2ccccc2)c2cc(Cl)ccc21 (stereo not given) [TEMAZEPAM]
2. CC[C@H]1OC(=O)[C@H](C)[C@@H](O[C@H]2C[C@@](C)(OC)[C@@H](O)[C@H](C)O2)[C@H](C)[C@@H](O[C@@H]2O[C@H](C)C[C@H](N(C)C)[C@H]2O)[C@](C)(O)C[C@@H](C)CN(C)[C@H](C)[C@@H](O)[C@]1(C)O [AZITHROMYCIN]
3. CO[C@H]1C[C@@H]2CC[C@@H](C)[C@@](O)(O2)C(=O)C(=O)N2CCCC[C@H]2C(=O)O[C@H]([C@H](C)C[C@@H]2CC[C@@H](O)[C@H](OC)C2)CC(=O)[C@H](C)/C=C(\C)[C@@H](O)[C@@H](OC)C(=O)[C@H](C)C[C@H](C)/C=C/C=C/C=C/1C [SIROLIMUS]
4. CCc1c(Cl)c(O)c(Cl)c(O)c1C(=O)O[C@H]1[C@H](O)[C@H](OC)[C@H](OC/C2=C\C=C\C[C@H](O)/C(C)=C/[C@H](CC)[C@@H](O[C@@H]3OC(C)(C)[C@@H](OC(=O)C(C)C)[C@H](O)[C@@H]3O)/C(C)=C/C(C)=C/C[C@@H]([C@@H](C)O)OC2=O)O[C@@H]1C [FIDAXOMICIN]
5. Cc1ccc(-c2cc(C(F)(F)F)nn2-c2ccc(S(N)(=O)=O)cc2)cc1 [CELECOXIB]
6. COc1ccc(C(=O)Nc2ccccc2CCC2CCCCN2C)cc1 (stereo not given) [ENCAINIDE]

Result:
> 30 µM
> 30 µM
> 30 µM
> 30 µM
> 30 µM
> 30 µM

Measured AC50, COc1ccc2c3c1O[C@H]1[C@@H](O)C=C[C@H]4[C@@H](C2)N(C)CC[C@@]341 [CODEINE] : > 30 µM
